target: Human factor Xa (Homo sapiens, UniProt P00742); assay: Xa Assay; type: biochemical; design: purchased Enzyme Research Laboratories, South Bend Ind; conditions: at 30 µM inhibitor
Sequence (P00742 41-179 limits assumed): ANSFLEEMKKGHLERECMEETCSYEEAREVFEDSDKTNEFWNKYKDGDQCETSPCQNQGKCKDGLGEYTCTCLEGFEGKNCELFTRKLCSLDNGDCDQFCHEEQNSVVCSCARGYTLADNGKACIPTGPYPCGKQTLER
Sequence (P00742 235-488 limits assumed): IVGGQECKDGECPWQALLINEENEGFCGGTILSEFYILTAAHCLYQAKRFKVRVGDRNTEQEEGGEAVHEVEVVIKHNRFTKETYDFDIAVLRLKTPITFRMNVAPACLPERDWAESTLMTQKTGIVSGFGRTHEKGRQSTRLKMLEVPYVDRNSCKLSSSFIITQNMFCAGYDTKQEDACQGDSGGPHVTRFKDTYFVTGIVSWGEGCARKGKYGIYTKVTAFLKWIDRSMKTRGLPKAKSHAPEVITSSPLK
compounds and their reported % Inhibition Factor Xa (30 µM)
Give just the numeric value; % need not be written.

line_notation	units_label	% Inhibition Factor Xa (30 µM)
N=C(N)c1ccc(CNC(=O)Cn2c(-c3ccccc3)c(Cl)nc(NCc3cc(Cl)ccc3Cl)c2=O)cc1	%	4
CSc1ccc(N)cc1-c1c(Cl)nc(NC(C)C)c(=O)n1CC(=O)NCc1ccc(C(=N)N)cc1	%	0

Entry under test: "Nc1cccc(-c2c(Cl)nc(NC3CCC3)c(=O)n2CC(=O)NCc2ccc(-c3n[nH]c(=O)[nH]3)cc2)c1" . Its % Inhibition Factor Xa (30 µM) was 8
